Experiment: inhibitors of TNFa-induced NFkB p65 translocation, primary screen, imaging, HUVEC, MLSMR starter and 10KST1 sets (AID 438);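 also: compound added about 3h40 before a 20 min TNFalpha stimulation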
Condition Parameters: HUVEC TNFa-induced p65 nuclear translocation; measured here: nuclei count (cytotoxicity indicator), at 2.08 µM
Classify by measured cell count: MET if it is equal to or exceeds 600, NOT MET if it is smaller.

Query block: Is the recorded value of cell count equal to or greater than 600 for this compound? COc1ccc(OC)c(C2C(C(=O)c3sc(C)nc3C)=C(O)C(=O)N2CCN2CCOCC2)c1 (configuration not stated)
Result block: NOT MET

Query block: I'd appreciate it if you could say whether "CC1(C)Cc2c(sc3nc(SCC(=O)NCc4ccco4)n(-c4ccccc4)c(=O)c23)CS1" has cell count at least equal to 600.
Result block: NOT MET

Query block: Has "NC(=O)c1ccccc1NC(=O)CCCN1C(=O)CCC1=O" a recorded cell count greater than or equal to 600?
Result block: NOT MET

Query block: Determine whether this compound has cell count no lower than 600: "Cn1c(N)c(C#N)c(C#N)c1-c1ccccc1"
Result block: MET

Query block: Confirm if cell count reported for the compound "CCOC(=O)c1ccc(NC(=O)CSCc2ccco2)cc1" is 600 or above.
Result block: MET

Query block: Please indicate if the recorded cell count for "CCc1cc(C(=O)OC)c(NC(=O)CCC(=O)O)s1" meets or exceeds 600.
Result block: MET

Query block: Reported cell count at or above 600? CC(=O)OC1CSc2nc3ccccc3n2C1 (configuration not stated)
Result block: NOT MET

Query block: Quick check: does "COc1ccccc1Oc1ccc(S(=O)(=O)N2CCOCC2)cc1S(=O)(=O)N1CCOCC1" have cell count greater than or equal to 600?
Result block: NOT MET

Query block: Determine whether measured cell count meets or exceeds 600 for CC(NC(=O)CSc1nnc(COc2ccccc2)o1)c1ccccc1 (configuration not stated)
Result block: NOT MET

Query block: Kindly determine if cell count recorded for "COc1cccc2cc(C(=O)N3CCN(c4ccc(C)cc4C)CC3)c(=O)oc12" is above or exactly 600.
Result block: MET

Query block: Hi team, for CC(C(N)=O)N1C(=O)C2C3C=CC(C3)C2C1=O (configuration not stated) , is the recorded cell count at or above 600?
Result block: NOT MET

Query block: Determine whether this compound has cell count no lower than 600: O=C1CCCC2=C1C(c1ccc(Br)cc1)c1c([nH]c(=S)[nH]c1=O)N2 (configuration not stated)
Result block: NOT MET

Query block: Is cell count at least 600? Consider "COCCOC(=O)c1c(C)oc2ccc(OC(=O)COc3c(F)c(F)c(F)c(F)c3F)cc12"
Result block: NOT MET

Query block: Would you say "Clc1ccc(-n2ncc3c(NCc4ccccn4)ncnc32)cc1" shows cell count at minimum 600?
Result block: NOT MET

Query block: Hello, I need to know if Cn1c(=O)c2c(ncn2CC(=O)OCC(=O)NC2CCCc3ccccc32)n(C)c1=O (configuration not stated) has measured cell count not below 600. Thanks!
Result block: NOT MET

Query block: hey, is cell count for this one >= 600? CC1C=CC(C)C(C(=O)O)C1C(=O)O (configuration not stated)
Result block: NOT MET

Query block: Entry "CCOc1ccccc1C(=O)Nc1cc(=O)n(C)c(=O)n1C" : is its cell count no less than 600?
Result block: MET

Query block: Dear colleague, could you confirm whether O=C1c2ccccc2C(=O)N1CC1c2ccccc2CCN1C(=O)N1CCOCC1 (configuration not stated) has cell count at or above 600?
Result block: MET

Query block: Hi team, for "Nc1nc(-n2cnnc2)nn1-c1ccccc1" , is the recorded cell count at or above 600?
Result block: NOT MET
